System: IGROV1 ovarian
Assay: NCI-60 one-dose screen, 48 h (100 = growth as untreated, 0 = no growth, -100 = all killed)
Settings: 10 µM unless noted
Method: Growth inhibition of the IGROV1 human tumor cell line is measured as a screen for anti-cancer activity. Cells are grown in 96 well plates and exposed to the test compound for 48 hours. Compounds are tested at a single concentration, which is 10^-5 M for most compounds. The reported endpoint is percent growth (GI% or GIPRCNT), where numbers from 0 - 100% represent growth inhibition, and numbers from -100% - 0 represent cell death. For example, a value of 40 represents 60% growth inhibition. […]
The panel holds about 83,000 compounds, 20% with a hit somewhere; the sample as a whole holds those more often.
For each of the compounds below, state its growth.
Numbers only, in %.

COc1cc2c(c(OC)c1OC)C(=O)CC(c1cccc(NC(=O)c3cc(NC(=O)[C@@H](N)CO)ccc3C)c1)O2 (stereo partly drawn); 114
COc1ccc(N2N=C(c3ccc4c(c3)OCO4)CC2c2cccc(NC(=O)CCNS(=O)(=O)c3ccc(Cl)cc3)c2)cc1 (stereo not drawn); 61.1

Please examine the following record next.
Can you share its growth? I mean this compound: COc1ccc(-c2cc(C(=O)NCc3ccccc3)nn2-c2ccc(S(C)(=O)=O)cc2)cc1OC
122

====

System: RPMI-8226 leukemia
Experiment: NCI-60 one-dose screen, 48 h
Conditions: 10 µM unless noted
This is part of a sample that, as a whole, favours compounds with a hit. Of some 83,000 tested, about 20% had one in any assay. Active and inactive are the calls of the source. How the source made its calls: active means growth percent below 10; inactive means the rest.
Give your call using only these classes: yes = active, no = inactive

CN(C)CCn1c2ccccc2c2nc3cc4ccccc4cc3nc21; no

Which outcome was entered for the molecule COc1cc2oc(-c3cccc(NC(=O)[C@H](Cc4ccccc4)NC(=O)OC(C)(C)C)c3)cc(=O)c2c(OC)c1OC in this test?
no

Record lookup: outcome of this test for COc1ccc(NC(=O)[C@H](C)N)cc1C(=O)Nc1cccc(C2CC(=O)c3c(cc(OC)c(OC)c3OC)O2)c1 (stereo not given in full) ?
no

In this assay, the call recorded for CCN(CC)CCOc1ccc(Nc2ncc3cc(-c4ccc(O)c(C#N)c4)c(=O)n(C)c3n2)cc1 was what?
no

Dear all, I need the recorded test outcome for COc1ccc2[nH]cc(-c3cc(N)n4nc(-c5cn(C)c6ccccc56)cc4n3)c2c1 , thank you.
yes

Identify the outcome logged in this assay for the molecule shown: Cc1ccc(/C=C/c2n(Cc3ccc4ccccc4c3)c3ccccc3[n+]2Cc2ccc3ccccc3c2)cc1
yes

Outcome logged for C#CCOc1cc(N(CC)CC)ccc1C(C(=O)NC(C)(C)C)N(C(=O)C1CCc2cc(F)ccc2O1)c1cc(C)cc(C)c1 (stereo not given) in this assay:
no

# outcome recorded in this test, key = N#Cc1c(-c2ccc(Br)cc2)nc2n[nH]c(-c3ccc(Br)cc3)c2c1-c1ccc(F)cc1
no

For Cc1ccc(NCC(=O)Cn2cc(COc3ccc(C=Nc4cnc5ccccc5c4)cc3)nn2)cc1 , which call appears in the assay record?
no

Answer briefly: the call reported for CC(=O)Nc1cccc(Nc2nc(N[C@H]3CCCc4ccccc43)c3ccccc3n2)c1 in this assay.
no

Please share the test call associated with COc1ccc(C(=O)/C=C/c2ccc(OCc3ccc(F)cc3)c(OC)c2)cc1OC .
yes

Assay result, entry CC1(c2cc3cc(Cl)ccc3oc2=O)NC(=O)c2c(/C=C/C(=O)OC3CC4CCC3(C)C4(C)C)cccc2N1 (stereo not given) — outcome?
no

Check the results log: what was the call for Cc1ccc([C@H]2C(C(=O)c3ccc(Cl)cc3)C3(N[C@@H]2c2ccccc2)C(=O)Nc2ccc(Br)cc23)cc1 (stereo not given in full) ?
no

Outcome logged for COc1cc2oc(-c3cccc(C(=O)Nc4cccc([N+](=O)[O-])c4)c3)cc(=O)c2c(OC)c1OC in this assay:
no

Give the logged outcome of this assay for the following molecule: COc1ccc(C(=O)/C=C/c2cccnc2)cc1S(N)(=O)=O
yes

Give the logged outcome of this assay for the following molecule: COc1cc(-c2nc3cc(Cl)c(Cl)cc3[nH]2)ccc1OCc1nnc(-c2cccs2)o1
no

Dear all, I need the recorded test outcome for COc1ccc(C(=O)Nc2n[nH]c(Nc3ccccc3)c2C#N)cc1 , thank you.
no

Lab log entry: Cc1ccccc1[C@H]1C(C(=O)c2ccc(Cl)cc2)C2(N[C@@H]1c1ccccc1)C(=O)Nc1ccc(Br)cc12 (stereo not given in full) — outcome as called in the assay?
yes

Hi, do you know how COc1ccc2nc(Nc3cccc(NC(=O)c4ccc(CN5CCCN(C)CC5)c(C(F)(F)F)c4)c3)ccc2c1 came out in this test?
yes

What call does the record list for CSc1ccc(C(=O)Nc2ccc3nn(/C(C#N)=C/c4ccccn4)nc3c2)cc1 ?
yes

Test call for this molecule, please: N#Cc1c(-c2ccc(Cl)cc2)nc2n[nH]c(-c3ccc(Cl)cc3)c2c1-c1ccc(C(F)(F)F)cc1
yes

What did this assay record as the result for CN1CCN(/C(=N\c2sc(-c3ccccc3)nc2-c2ccccc2)c2ccccc2)CC1 ?
no

Name the outcome recorded for CC1CCCCN1CCCNC(=O)N/C(N)=N/c1nc2ccccc2s1 (stereo not given) in the assay.
yes

Recorded call for COc1ccc(-c2nc(SC(C)C)nc(NCCc3c[nH]c4ccccc34)c2C#N)cc1 ?
no
